These entries and their values trace back to a melting point compilation (Tetko et al.; mined from patent text by program, amines drawn as free bases though some values may be those of a salt).

MEASUREMENT_NAME: melting point

Example cases with answers are listed next.
COC(=O)N1CSC(=Cc2cc(C(C)(C)C)c(O)c(C(C)(C)C)c2)C1=O    165 to 168 °C
CC(=O)OC1c2ccccc2C(=O)N1CCO[N+](=O)[O-] (stereo not given)    74 to 75 °C
Cc1cccc2c(C=O)cc(C(C)C)c(O)c12    125 to 128 °C
CCCN(c1nc(-c2ccc(Cl)cc2Cl)c(C=O)s1)C(C)c1ccncc1 (stereo not given)    114 °C

// switching to the query molecule
Specify melting point for Cc1c(NC(=O)c2ccc(-c3cc4ccccc4s3)cc2)ccc2cc(CN3CCCC3)cnc12 and stop.
217 to 218 °C
